Source: ChEMBL document CHEMBL2157961

# testDetails: Lipophilicity, log D of the compound at pH 7.4
# Assay type: physicochemical
# particulars: buffer
parameterMeasured: logD

Example compounds with recorded logD:
GET /values?readout=logD&item= Cc1ncc(C(=O)N[C@H]2C3CC4CC2C[C@](O)(C4)C3)c(CC2CCCC2)n1
2.1

GET /values?readout=logD&item= O=C(N[C@H]1C2CC3CC1C[C@](O)(C3)C2)c1cnc(N2CCOCC2)nc1C1CCCCC1
3.2

GET /values?readout=logD&item= CCCSc1nc(NC)ccc1C(=O)N[C@H]1C2CC3CC1C[C@](O)(C3)C2
3.3

(A) O=C(N[C@H]1C2CC3CC1C[C@](O)(C3)C2)c1cnc(N2CCOCC2)nc1C1CCCC1
(B) Cc1ncc(C(=O)N[C@H]2C3CC4CC2C[C@](O)(C4)C3)c(-c2ccccc2)n1
(C) Cc1ncc(C(=O)N[C@H]2C3CC4CC2C[C@](O)(C4)C3)c(C2CCCC2)n1
Sort (3 compounds) by logD: min first. Please write the labels in the order that was asked for.
B, C, A

---

# testDetails: Oral bioavailability in rat
# Format: ADME, organism-based
# particulars: in vivo
parameterMeasured: bioavailability (%)

Example compounds with recorded bioavailability:
GET /values?readout=bioavailability&item= CCCSc1nc(N2CCOCC2)ccc1C(=O)N[C@H]1C2CC3CC1C[C@](O)(C3)C2
64

GET /values?readout=bioavailability&item= CCCCc1nc(C)ncc1C(=O)N[C@H]1C2CC3CC1C[C@](O)(C3)C2
98

GET /values?readout=bioavailability&item= CCCSc1nc(N(C)C)ccc1C(=O)N[C@H]1C2CC3CC1C[C@](O)(C3)C2
24

(P) O=C(N[C@H]1C2CC3CC1C[C@](O)(C3)C2)c1cnc(N2CCOCC2)nc1C1CCC1
(Q) Cc1ccc(C(=O)N[C@H]2C3CC4CC2C[C@](O)(C4)C3)c(C2CC2)n1
(R) O=C(N[C@H]1C2CC3CC1C[C@](O)(C3)C2)c1cnc(N2CCOCC2)nc1C1CCCCC1
(S) CCCSc1ncncc1C(=O)N[C@H]1C2CC3CC1C[C@](O)(C3)C2
Sort (4 compounds) by bioavailability: min first. Please write the labels in the order that was asked for.
S, R, P, Q
(S: 0%, R: 31%, P: 45%, Q: 75%)

(A) O=C(N[C@H]1C2CC3CC1C[C@](O)(C3)C2)c1ccc(N2CCOCC2)nc1C1CC1
(B) Cc1ncc(C(=O)N[C@H]2C3CC4CC2C[C@](O)(C4)C3)c(CC2CCCC2)n1
(C) CCCSc1nc(NC)ccc1C(=O)N[C@H]1C2CC3CC1C[C@](O)(C3)C2
Sort (3 compounds) by bioavailability: min first. Please write the labels in the order that was asked for.
C, B, A

(a) CCCOc1nc(N2CCOCC2)ccc1C(=O)N[C@H]1C2CC3CC1C[C@](O)(C3)C2
(b) Cc1ncc(C(=O)N[C@H]2C3CC4CC2C[C@](O)(C4)C3)c(C(C)(C)C)n1
Hi there! Just curious which has the higher bioavailability between a and b . Lab note: record the label of whichever item you select.
b

(A) CC(C)(C)c1nc(N2CCOCC2)ncc1C(=O)N[C@H]1C2CC3CC1C[C@](O)(C3)C2
(B) CCCOc1nc(N2CCOCC2)ncc1C(=O)N[C@H]1C2CC3CC1C[C@](O)(C3)C2
(C) CCCSc1nc(C)ccc1C(=O)N[C@H]1C2CC3CC1C[C@](O)(C3)C2
Could you please sort these 3 entries by bioavailability from high to low? Please write the labels in the order that was asked for.
A, C, B
(A: 100%, C: 63%, B: 36%)
